This section presents compounds with their documented inhibition values.
System: Streptococcus agalactiae
test: Inhibition of Streptococcus agalactiae NSR transfected in Lactococcus lactis NZ9000 cells assessed as bacterial growth inhibition at 150 uM incubated for 5 hrs by optical density based assay in presence of 30 nM nisin
assay_metric: inhibition (%)

compound | assay_metric | operator | assay_value
Cc1cc(C)c(S(=O)(=O)N2CCCC2CNC(=O)C(=O)Nc2ccccc2C#N)c(C)c1 (stereo not given) | inhibition | < | 1
O=C(CNC(=O)c1ccc2c(c1)OCO2)NCCc1c[nH]c2ccccc12 | inhibition | < | 1
O=C(NCC(O)c1ccc(O)cc1)C(=O)Nc1ccccc1O (stereo not given) | inhibition | = | 13.6
CCn1c(=O)n(CCC(=O)Nc2nc(-c3ccc4c(c3)CCO4)cs2)c2ccccc21 | inhibition | < | 1
COc1ccc(C2(CNC(=O)C(=O)Nc3ccc(Br)cc3)CCOCC2)cc1 | inhibition | < | 1
Cc1[nH]c(SCC(=O)Nc2[nH]c(Cc3ccccc3)c(C)c2C#N)nc1Cc1ccccc1 | inhibition | = | 15.3
CC(C(=O)NC(CO)(CO)CO)c1ccc2c(c1)[nH]c1ccc(Cl)cc12 (stereo not given) | inhibition | = | 8.21
Cc1ccc2c(c1)-c1c(cnn1CC(=O)NC(C)c1ccc3c(c1)OCCO3)CO2 (stereo not given) | inhibition | < | 1
CCc1ccc(NC(=O)C(=O)NCC(c2ccc3c(c2)OCO3)N2CCN(C)CC2)cc1 (stereo not given) | inhibition | = | 6.03
COc1ccccc1-n1cc(C(=O)N2Cc3nc[nH]c3CC2C(=O)O)cn1 (stereo not given) | inhibition | = | 10.8

---

Test system: Streptococcus agalactiae
test: Inhibition of Streptococcus agalactiae NSR transfected in Lactococcus lactis NZ9000 cells assessed as bacterial growth inhibition at 150 uM incubated for 5 hrs by optical density based assay in presence of 30 nM nisin
Residues, ends and D or L forms follow the SMILES beside them. *: point of attachment. Boc = CC(C)(C)OC(=O)*; Bn = c1ccc(C*)cc1
Recorded inhibition values for a group of molecules are listed next.
assay_metric: inhibition (%)

molecule | assay_metric | units_label | operator | assay_value
COc1ccc2[nH]cc(CCNC(=O)CC3C(=O)Nc4c3c(=O)n(C)c(=O)n4C)c2c1 (centres undefined) | inhibition | % | = | 11.3
Cc1cc(C)c2c(=O)n(CC(=O)Nc3ccc(C(C)C)cc3)c(=O)n(Cc3ccco3)c2n1 | inhibition | % | < | 1
CCCCn1nc(C(=O)N[C@@H](Cc2c[nH]c3ccccc23)C(=O)O)c2ccccc2c1=O | inhibition | % | = | 3.21
CC1CCc2nc(NC(=O)c3ccccc3NC(=O)CSc3nccn3C)sc2C1 (centres undefined) | inhibition | % | = | 1.38
Cc1cc(C)nc(NC(Cc2ccccc2)C(=O)NCc2nc3ccccc3[nH]2)n1 (centres undefined) | inhibition | % | < | 1
CCCCc1ccc(NC(=O)CN2C(=O)NC(C)(Cc3ccc(OC)c(OC)c3)C2=O)cc1 (centres undefined) | inhibition | % | = | 14.1
Cc1ccc(-n2nc(C)c(NC(=O)Cn3cnc4c3c(=O)n(C)c(=O)n4C)c2C)cc1 | inhibition | % | = | 14.2
CC(=O)Nc1ccc(NC(=O)CSc2nc3ccccc3c(=O)n2-c2ccccc2)cc1 | inhibition | % | = | 7.58
COc1ccc(-c2cc(N3CCCN(C(=O)C4(c5ccc(OC)cc5)CC4)CC3)[nH]n2)cc1 | inhibition | % | = | 20.7
O=C(CC[C@H]1NC(=O)c2ccccc2NC1=O)NCc1nc2ccccc2[nH]1 | inhibition | % | = | 9.95
OC(CNc1ccccc1Cl)COc1ccc(OCC(O)CNc2ccccc2Cl)cc1 (centres undefined) | inhibition | % | < | 1
COc1ccc(C2(CNC(=O)c3cn(C(C)C)c(=O)c4ccccc34)CCOCC2)cc1 | inhibition | % | = | 4.86
CCN(CC)Cc1ccc(CNC(=O)NCc2ccc(Cn3ccnc3)cc2)cc1 | inhibition | % | < | 1
O=C(Cn1cnc2c(oc3ccccc32)c1=O)NCc1ccccc1Cn1ccnc1 | inhibition | % | < | 1
O=C(CC1NC(=O)c2ccccc2NC1=O)NCc1nc(-c2ccccc2Cl)no1 (centres undefined) | inhibition | % | < | 1
CCc1cc(=O)[nH]c(-n2nc(C)cc2NC(=O)C(=O)NCCc2ccccc2)n1 | inhibition | % | < | 1
CC(O)C(NC(=O)C(Cc1ccc(OCc2ccccc2)cc1)NC(=O)CNC(=O)OC(C)(C)C)C(N)=O (stereo not drawn) (Boc-Gly-Tyr(Bn)-Thr-NH2; configuration not given here) | inhibition | % | = | 17.5
O=C(CCn1c(=O)oc2cc(Cl)ccc21)Nc1ccc(N2CCOCC2)nc1 | inhibition | % | = | 19
CNC(=O)CNC(=O)c1cccc(S(=O)(=O)NC(C)c2ccccc2)c1 (centres undefined) | inhibition | % | = | 7.92

---

Test system: Streptococcus agalactiae
test: Inhibition of Streptococcus agalactiae NSR transfected in Lactococcus lactis NZ9000 cells assessed as potentiation of nisin-induced growth inhibition by measuring reduction in nisin IC50 at 300 uM incubated for 5 hrs by optical density based assay relative to nisin alone
Consider the following molecules and their measured inhibition readings.

smi | inhibition
CCC(CC)(CO)NC(=O)Nc1cccc(Oc2ccccc2)c1 | < 1%
CC(C)(CO)NC(=O)NCC12CC3CC(CC(C3)C1)C2 | 8.5%
O=C(NCc1ccccc1)C(=Cc1ccc(O)c(O)c1)C(=O)NCc1ccccc1 | 32.2%
O=C(Nc1ccccc1C(F)(F)F)NC(CO)(CO)C(F)(F)F | < 1%
CC(CO)(CO)NC(=O)NC1CCCCC1 | < 1%
CC(C)NC(=O)Nc1ccc(Cl)cc1 | < 1%

---

System: Streptococcus agalactiae
test: Inhibition of Streptococcus agalactiae NSR transfected in Lactococcus lactis NZ9000 cells assessed as potentiation of nisin-induced growth inhibition by measuring reduction in nisin IC50 at 120 uM incubated for 5 hrs by optical density based assay relative to nisin alone
Each item that follows carries a reported inhibition.

molecule | operator | inhibition / %
CC(CO)(CO)NC(=O)Nc1ccc(Cl)c(Br)c1 | = | 50.5
CC(C)(CO)NC(=O)NCC12CC3CC(CC(C3)C1)C2 | = | 4
O=C(Nc1ccccc1C(F)(F)F)NC(CO)(CO)C(F)(F)F | < | 1
N#Cc1ccc(NC(=O)NC(CO)c2ccccc2)cc1 (stereo not given) | = | 8.1
O=C(Nc1ccc(C(F)(F)F)cc1)NC1(CO)CCOCC1 | < | 1

---

Test system: Streptococcus agalactiae
test: Inhibition of Streptococcus agalactiae NSR transfected in Lactococcus lactis NZ9000 cells assessed as potentiation of nisin-induced growth inhibition by measuring reduction in nisin IC50 at 300 uM incubated for 5 hrs by optical density based assay relative to nisin alone
assay_metric: inhibition (%)

compound | operator | assay_value
N#Cc1ccc(NC(=O)NC(CO)c2ccccc2)cc1 (configuration not stated) | = | 13.5
N#Cc1ccc(NC(=O)NCCNC(=O)Nc2ccc(C#N)cc2)cc1 | < | 1
CC(CO)NC(=O)Nc1ccc(Cl)cc1 (configuration not stated) | < | 1
Cc1cc(C)c2c(C)nn(-c3ccc(NC(=O)CCc4nc5ccccc5c(=O)[nH]4)cc3)c2n1 | = | 1.9
COc1ccc(-c2cc(N3CCCN(C(=O)C4(c5ccc(OC)cc5)CC4)CC3)[nH]n2)cc1 | = | 20.5
O=C(Nc1ccc(C(F)(F)F)cc1)NC1(CO)CCOCC1 | < | 1
CC(CO)NC(=O)Nc1ccc(C(F)(F)F)cc1 (configuration not stated) | < | 1

---

Test system: Streptococcus agalactiae
test: Inhibition of Streptococcus agalactiae NSR transfected in Lactococcus lactis NZ9000 cells assessed as bacterial growth inhibition at 150 uM incubated for 5 hrs by optical density based assay in presence of 30 nM nisin
inhibition values, listed per item
assay_metric: inhibition (%)

compound | target_entity | assay_metric | units_label | operator | assay_value
CCCC(=O)Nc1ccc(CNC(=O)NCC(CO)Cc2ccc(C)cc2)cc1 (stereo not given) | Streptococcus agalactiae | inhibition | % | = | 19.6
CC(CO)(CO)NC(=O)Nc1ccc(Cl)c(Br)c1 | Streptococcus agalactiae | inhibition | % | = | 57.9
Cc1cc(C)c2c(C)nn(-c3ccc(NC(=O)CCc4nc5ccccc5c(=O)[nH]4)cc3)c2n1 | Streptococcus agalactiae | inhibition | % | < | 1
O=C(NCc1ccccc1)C(=Cc1ccc(O)c(O)c1)C(=O)NCc1ccccc1 | Streptococcus agalactiae | inhibition | % | = | 16.9
CC(O)(CNC(=O)NCC[S+]([O-])c1ccccc1)c1ccco1 (stereo not given) | Streptococcus agalactiae | inhibition | % | = | 13.4
